B1: F1*; the commonest letter at each place (parent)
chain: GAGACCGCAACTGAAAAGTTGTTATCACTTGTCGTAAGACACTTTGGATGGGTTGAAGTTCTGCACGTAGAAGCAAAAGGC

Variants of: B1
ASSAY PROTOCOL: fraction ligated after 30 min (ligated reads / total reads); higher = more ligase activity
MEASUREMENT PARAMETERS: with F1*sub RNA substrate (template-directed ligation), 42 °C

{"VARIANT ID": "G34T T44C", "fraction ligated": 0.811}
{"VARIANT ID": "A39G A48T", "fraction ligated": 0.824}
{"VARIANT ID": "A39C T44A", "fraction ligated": 0.799}
{"VARIANT ID": "T30C C42G", "fraction ligated": 0.817}
{"VARIANT ID": "C26A", "fraction ligated": 0.788}
